In this section we review reported DR/DR AA values for a set of molecules.
# assay_name: Probe fluorescence ratio response to arachidonic acid relative to ADIFAB2
# Format: binding
# experimental_context: arachidonic acid; response relative to ADIFAB2
Could you keep your reply to the number by itself?

Take a look at these entries with their results.
INSERT INTO results (molecule, measurement_kind, numeric_readout) VALUES
  ('117F, 72A (protein, listed as Rattus norvegicus, PEPTIDE (1)...(131) wild-type rat intestinal fatty acid binding protein) AFDGTWKVDRNENYEKFMEKMGINVVKRKLGAHDNLKLTITQEGNKFTVKESSNFRNIDVVFELGVDFAYSAADGTELTGTWTMEGNKLVGKFKRVDNGKELIAVREISGNELIQTFTYEGVEAKRIFKKE', 'DR/DR AA', 1.33),
  ('23V, 72A (protein, listed as Rattus norvegicus, PEPTIDE (1)...(131) wild-type rat intestinal fatty acid binding protein) AFDGTWKVDRNENYEKFMEKMGVNVVKRKLGAHDNLKLTITQEGNKFTVKESSNFRNIDVVFELGVDFAYSAADGTELTGTWTMEGNKLVGKFKRVDNGKELIAVREISGNELIQTYTYEGVEAKRIFKKE', 'DR/DR AA', 1.464),
  ('106I3, 72A (protein, listed as Rattus norvegicus, PEPTIDE (1)...(131) wild-type rat intestinal fatty acid binding protein) AFDGTWKVDRNENYEKFMEKMGINVVKRKLGAHDNLKLTITQEGNKFTVKESSNFRNIDVVFELGVDFAYSAADGTELTGTWTMEGNKLVGKFKRVDNGKELIAVIEISGNELIQTYTYEGVEAKRIFKKE', 'DR/DR AA', 0.59),
  ('106H, 72A (protein, listed as Rattus norvegicus, PEPTIDE (1)...(131) wild-type rat intestinal fatty acid binding protein) AFDGTWKVDRNENYEKFMEKMGINVVKRKLGAHDNLKLTITQEGNKFTVKESSNFRNIDVVFELGVDFAYSAADGTELTGTWTMEGNKLVGKFKRVDNGKELIAVHEISGNELIQTYTYEGVEAKRIFKKE', 'DR/DR AA', 0.636),
  ('106A, 72A (protein, listed as Rattus norvegicus, PEPTIDE (1)...(131) wild-type rat intestinal fatty acid binding protein) AFDGTWKVDRNENYEKFMEKMGINVVKRKLGAHDNLKLTITQEGNKFTVKESSNFRNIDVVFELGVDFAYSAADGTELTGTWTMEGNKLVGKFKRVDNGKELIAVAEISGNELIQTYTYEGVEAKRIFKKE', 'DR/DR AA', 0.389);

Given the molecule 31V, 72A (protein, listed as Rattus norvegicus, PEPTIDE (1)...(131) wild-type rat intestinal fatty acid binding protein) AFDGTWKVDRNENYEKFMEKMGINVVKRKLVAHDNLKLTITQEGNKFTVKESSNFRNIDVVFELGVDFAYSAADGTELTGTWTMEGNKLVGKFKRVDNGKELIAVREISGNELIQTYTYEGVEAKRIFKKE , what is its reported DR/DR AA?
0.395

Can you handle 104L1, 72A (protein, listed as Rattus norvegicus, PEPTIDE (1)...(131) wild-type rat intestinal fatty acid binding protein) AFDGTWKVDRNENYEKFMEKMGINVVKRKLGAHDNLKLTITQEGNKFTVKESSNFRNIDVVFELGVDFAYSAADGTELTGTWTMEGNKLVGKFKRVDNGKELILVREISGNELIQTYTYEGVEAKRIFKKE next?
0.38
